Assay read-out pIC50; system under study: c-Cbl (Homo sapiens (Human), UniProt P22681).
Sequence (P22681 47-435): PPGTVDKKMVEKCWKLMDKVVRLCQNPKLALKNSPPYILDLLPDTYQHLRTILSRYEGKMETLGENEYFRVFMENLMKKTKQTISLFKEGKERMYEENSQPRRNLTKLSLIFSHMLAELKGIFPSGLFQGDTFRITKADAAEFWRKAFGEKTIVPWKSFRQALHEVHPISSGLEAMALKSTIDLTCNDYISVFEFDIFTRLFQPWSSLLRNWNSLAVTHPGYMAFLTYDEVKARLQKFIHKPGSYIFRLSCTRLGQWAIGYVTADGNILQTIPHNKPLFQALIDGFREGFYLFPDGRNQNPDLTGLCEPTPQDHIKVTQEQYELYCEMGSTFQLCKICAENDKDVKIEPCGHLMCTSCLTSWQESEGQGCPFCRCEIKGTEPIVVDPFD
In plain terms, pIC50 is the concentration in mol/L turned into minus its base-10 logarithm.

Past entries and their recorded results:
Molecule | pIC50
Cn1cnnc1[C@H](F)C1(c2cccc(NC(=O)c3cc(CN)cc(C(F)(F)F)n3)c2)COC1.O=CO [Compound 64, formate] | 6.64
CN(C)Cc1cc(C(=O)Nc2cccc(C3(Cc4nncn4C)COC3)c2)nc(C(F)(F)F)c1 | 6.47
C[C@H](c1cc(C(=O)Nc2cccc(C3(Cc4nncn4C)COC3)c2)nc(C(F)(F)F)c1)N1CC(F)C1 | 6.43

### Prompt Return value of pIC50 for input Cn1cnnc1[C@@H](F)[C@](C)(F)c1cccc(NC(=O)c2cc(CN3CCC4(CC4)C3)cc(C3CC3)n2)c1 , no commentary.
### Response 7.38

----------
Listed here are compounds together with their documented IC50.
Study Target: UniProt Q13191
Experiment: Cbl-b LCK Ub TR-FRET assay (Cbl-b Lck HTRF)
Type: biochemical
Condition Summary: read-out: Cbl-b Lck HTRF IC50
Field format: number, assumed nM, no unit text.

Past entries and their recorded results:
Smiles Entry | IC50 / nM
Cn1cnnc1[C@H](F)C1(c2cccc(NC(=O)c3cc(CN4CC(C)(F)C4)cc(C4CC4)n3)c2)COC1 | 17
Cn1cnnc1[C@@H](F)[C@](C)(F)c1cccc(NC(=O)c2cc(CN3CCC4(CC4)C3)nc(C3CC3)n2)c1 | 190
Cn1cnnc1[C@H](F)C1(c2cccc(NC(=O)c3cc(CN4CC(C)(F)C4)nc(C4CC4)n3)c2)COC1 | 270

Now look at this entry.
### Prompt Return value of IC50 for input Cn1cnnc1[C@H](F)[C@](C)(F)c1cccc(NC(=O)c2cc(CN3CCC4(CC4)C3)nc(C3CC3)n2)c1 , no commentary.
### Response 180

----------
Study Target: Cbl-b (Homo sapiens (Human))
Sequence (Q13191 40-426): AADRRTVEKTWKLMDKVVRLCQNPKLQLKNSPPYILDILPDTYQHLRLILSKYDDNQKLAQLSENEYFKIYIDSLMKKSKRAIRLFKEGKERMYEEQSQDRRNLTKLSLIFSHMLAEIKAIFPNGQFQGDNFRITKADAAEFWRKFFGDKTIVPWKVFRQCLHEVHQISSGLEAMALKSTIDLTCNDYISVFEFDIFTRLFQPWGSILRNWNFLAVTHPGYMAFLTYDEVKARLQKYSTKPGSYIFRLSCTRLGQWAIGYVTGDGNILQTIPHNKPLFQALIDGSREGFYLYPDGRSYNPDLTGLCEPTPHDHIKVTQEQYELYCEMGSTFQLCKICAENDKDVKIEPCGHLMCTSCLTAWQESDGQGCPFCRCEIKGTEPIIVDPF
Experiment: Cbl-b LCK Ub TR-FRET assay (Cbl-b Lck HTRF)
Format: biochemical
Condition Summary: Cbl-b and C-Cbl selectivity, Lck HTRF
Experimental Endpoint: (fold-selectivity)

Past entries and their recorded results:
Molecule | (fold-selectivity)
C[C@H](c1cc(C(=O)Nc2cccc(C3(Cc4nncn4C)COC3)c2)nc(C(F)(F)F)c1)N1CCC2(CC2)C1 | (1.9x)
Cn1cnnc1C(F)C1(c2cccc(NC(=O)c3nc(C(F)(F)F)c[nH]3)c2)COC1 (centres unmarked) | (1.1x)
C[C@H](c1cc(C(=O)Nc2cccc(C3([C@H](F)c4nncn4C)COC3)c2)nc(C2CC2)c1)N1CC(C)(F)C1 | (1.1x)
Cn1cnnc1[C@@H](F)C(C)(F)c1cccc(NC(=O)c2cc(CN3CC(C)(F)C3)nc(C3CC3)n2)c1 (stereo in doubt) [Compound 46] | (1.9x)
Cn1cnnc1[C@H](F)[C@](C)(F)c1cccc(NC(=O)c2cc(CN3CC(C)(F)C3)nc(C3CC3)n2)c1 | (2.3x)

### Prompt Supply (fold-selectivity) measured with Cbl-b (Homo sapiens (Human)) for Cn1cnnc1[C@@H](F)C1(c2cccc(NC(=O)c3cc(CN4CC(C)(F)C4)cc(C(F)(F)F)n3)c2)COC1 .
### Response (2.3x)

----------
Tested on: PBMCs
Experiment: PBMC IL-2 assay
Type: cell-based
Condition Summary: read-out: PBMC IL-2 Cell EC50
Experimental Endpoint: pEC50
In plain terms, pEC50 is the concentration in mol/L turned into minus its base-10 logarithm.

### Prompt Supply pEC50 measured with PBMCs for CC(C)[C@H]1CN(C)CCN1Cc1cc(C(=O)Nc2cccc(C3(Cc4nncn4C)CC(F)(F)C3)c2)nc(C2CC2)c1 [Compound 224] .
### Response 7.49
